Here, each record is paired with measured Fold Shift of EC50 data.
Target: PTHR1 receptor
Sequence (P25961 whole entry): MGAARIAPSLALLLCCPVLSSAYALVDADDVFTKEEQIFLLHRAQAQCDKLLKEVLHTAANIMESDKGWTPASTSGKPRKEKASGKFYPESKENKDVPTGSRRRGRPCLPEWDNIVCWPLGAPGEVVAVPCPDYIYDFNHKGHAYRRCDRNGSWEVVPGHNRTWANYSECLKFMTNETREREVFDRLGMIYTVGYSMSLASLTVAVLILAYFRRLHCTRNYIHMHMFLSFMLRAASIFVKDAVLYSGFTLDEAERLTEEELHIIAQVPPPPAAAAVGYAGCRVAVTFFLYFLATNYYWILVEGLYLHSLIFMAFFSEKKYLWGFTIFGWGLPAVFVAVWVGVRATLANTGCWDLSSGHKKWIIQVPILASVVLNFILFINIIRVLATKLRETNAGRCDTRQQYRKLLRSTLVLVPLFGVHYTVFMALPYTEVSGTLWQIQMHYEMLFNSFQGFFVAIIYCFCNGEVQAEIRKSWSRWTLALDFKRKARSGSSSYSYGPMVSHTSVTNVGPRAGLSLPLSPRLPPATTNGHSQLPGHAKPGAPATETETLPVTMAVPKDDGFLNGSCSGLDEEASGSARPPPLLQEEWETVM
* marks the point of attachment. Palmitoyl = CCCCCCCCCCCCCCCC(=O)*
Report only the number, with the unit fold understood.

Recorded Fold Shift of EC50, per entry:
binder: Palmitoyl-RRLHSTRNYIHM-NH2 (SMILES CCCCCCCCCCCCCCCC(=O)N[C@@H](CCCNC(=N)N)C(=O)N[C@@H](CCCNC(=N)N)C(=O)N[C@@H](CC(C)C)C(=O)N[C@@H](Cc1c[nH]cn1)C(=O)N[C@@H](CO)C(=O)N[C@H](C(=O)N[C@@H](CCCNC(=N)N)C(=O)N[C@@H](CC(N)=O)C(=O)N[C@@H](Cc1ccc(O)cc1)C(=O)N[C@H](C(=O)N[C@@H](Cc1c[nH]cn1)C(=O)N[C@@H](CCSC)C(N)=O)[C@@H](C)CC)[C@@H](C)O) [Compound 15]
units.of.measure: fold
value.reported: 1.7
//
binder: Palmitoyl-WTLALDFKRKAR-NH2 (SMILES CCCCCCCCCCCCCCCC(=O)N[C@@H](Cc1c[nH]c2ccccc12)C(=O)N[C@H](C(=O)N[C@@H](CC(C)C)C(=O)N[C@@H](C)C(=O)N[C@@H](CC(C)C)C(=O)N[C@@H](CC(=O)O)C(=O)N[C@@H](Cc1ccccc1)C(=O)N[C@@H](CCCCN)C(=O)N[C@@H](CCCNC(=N)N)C(=O)N[C@@H](CCCCN)C(=O)N[C@@H](C)C(=O)N[C@@H](CCCNC(=N)N)C(N)=O)[C@@H](C)O) [Compound 103]
units.of.measure: fold
value.reported: 1.2
//
binder: Palmitoyl-AYFRRLHSTRNYIH-NH2 (SMILES CCCCCCCCCCCCCCCC(=O)N[C@@H](C)C(=O)N[C@@H](Cc1ccc(O)cc1)C(=O)N[C@@H](Cc1ccccc1)C(=O)N[C@@H](CCCNC(=N)N)C(=O)N[C@@H](CCCNC(=N)N)C(=O)N[C@@H](CC(C)C)C(=O)N[C@@H](Cc1c[nH]cn1)C(=O)N[C@@H](CO)C(=O)N[C@H](C(=O)N[C@@H](CCCNC(=N)N)C(=O)N[C@@H](CC(N)=O)C(=O)N[C@@H](Cc1ccc(O)cc1)C(=O)N[C@H](C(=O)N[C@@H](Cc1c[nH]cn1)C(N)=O)[C@@H](C)CC)[C@@H](C)O) [Compound 7]
units.of.measure: fold
value.reported: 1.2

We now examine a further binder.
// Input: Palmitoyl-TNAGRSDTRQQARKLL-NH2 (SMILES CCCCCCCCCCCCCCCC(=O)N[C@H](C(=O)N[C@@H](CC(N)=O)C(=O)N[C@@H](C)C(=O)NCC(=O)N[C@@H](CCCNC(=N)N)C(=O)N[C@@H](CO)C(=O)N[C@@H](CC(=O)O)C(=O)N[C@H](C(=O)N[C@@H](CCCNC(=N)N)C(=O)N[C@@H](CCC(N)=O)C(=O)N[C@@H](CCC(N)=O)C(=O)N[C@@H](C)C(=O)N[C@@H](CCCNC(=N)N)C(=O)N[C@@H](CCCCN)C(=O)N[C@@H](CC(C)C)C(=O)N[C@@H](CC(C)C)C(N)=O)[C@@H](C)O)[C@@H](C)O) [Compound 92] . Output its Fold Shift of EC50 only. 5

Source: patent US20110294738A1
